Target: MvitPBP1 (Maruca vitrata)
Test: Fluorescence competitive binding assay with 1-NPN probe, recombinant MvitPBP1

{"COMPOUND": "c1ccc(Nc2cccc3ccccc23)cc1 [1-NPN, N-phenyl-1-naphthylamine, reference compound]", "UNIT STRING": "µM", "Kd": 13}

###

Target: UniProtKB A0A0K0K7G1
Test: Fluorescence competitive binding assay with 1-NPN probe, recombinant MvitPBP1

{"SUBSTANCE SMILES": "CC(=O)c1ccc(C(C)=O)cc1", "UNIT STRING": "µM", "IC50": 19.6}

###

Biological target: MvitPBP1 (Maruca vitrata)
Test: Fluorescence competitive binding assay with 1-NPN probe, recombinant MvitPBP1
pKi: −log10 of the molar value.

{"SUBSTANCE SMILES": "CC(=O)c1ccc(C(C)=O)cc1", "TESTED SYSTEM": "MvitPBP1 (Maruca vitrata)", "pKi": 4.76}

###

Molecular target: MvitPBP2 (Maruca vitrata, UniProt A0A1D6YJA8)
Sequence (A0A1D6YJA8 entry or part of it): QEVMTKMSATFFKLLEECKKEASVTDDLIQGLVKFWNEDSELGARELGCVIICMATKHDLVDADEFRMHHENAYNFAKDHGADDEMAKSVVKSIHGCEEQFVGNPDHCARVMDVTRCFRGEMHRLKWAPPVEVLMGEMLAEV
Assay: Fluorescence competitive binding assay with 1-NPN probe, recombinant MvitPBP2
Conditions: MvitPBP2; 2 μM protein and 1-NPN, 20 mM Tris-HCl pH 7.4; read-out: IC50 (ligand concentration displacing 50% of the fluorescence intensity of the MvitPBPs/1-NPN complex)

{"COMPOUND": "CCC/C=C/C=C/CCCCCCCCC=O [E10E12-16: Ald, (E,E)-10,12-Hexadecadienal]", "TESTED SYSTEM": "MvitPBP2 (Maruca vitrata, UniProt A0A1D6YJA8)", "IC50 [µM]": 5.89}
{"COMPOUND": "CCC/C=C/C=C/CCCCCCCCCO [E10E12-16: OH, (E,E)-10,12-Hexadecadien-1-ol]", "TESTED SYSTEM": "MvitPBP2 (Maruca vitrata, UniProt A0A1D6YJA8)", "IC50 [µM]": 5.91}
{"COMPOUND": "CCCCC/C=C/CCCCCCCCCO [E10-16: OH, (E)-10-Hexadecen-1-ol]", "TESTED SYSTEM": "MvitPBP2 (Maruca vitrata, UniProt A0A1D6YJA8)", "IC50 [µM]": 6.82}
{"COMPOUND": "CCCCC/C=C/CCCCCCCCC=O [E10-16: Ald, (E)-10-Hexadecenal]", "TESTED SYSTEM": "MvitPBP2 (Maruca vitrata, UniProt A0A1D6YJA8)", "IC50 [µM]": 5.53}

###

Target: MvitPBP1 (Maruca vitrata)
Test: Fluorescence competitive binding assay with 1-NPN probe, recombinant MvitPBP1
Details: MvitPBP1; 2 μM protein and 1-NPN, 20 mM Tris-HCl pH 7.4; read-out: IC50 (ligand concentration displacing 50% of the fluorescence intensity of the MvitPBPs/1-NPN complex)
pIC50: −log10 of the molar value.
Please enter 1 where pIC50 is greater than or equal to 5, and -1 where it is lower.

{"MOLECULE": "Oc1cccc2[nH]ccc12", "GROUP LABEL": -1}
{"MOLECULE": "CCC/C=C/C=C/CCCCCCCCC=O [E10E12-16: Ald, (E,E)-10,12-Hexadecadienal]", "GROUP LABEL": 1}

###

Target: MvitPBP1 (Maruca vitrata, UniProt A0A0K0K7G1)
Sequence (A0A0K0K7G1 entry or part of it): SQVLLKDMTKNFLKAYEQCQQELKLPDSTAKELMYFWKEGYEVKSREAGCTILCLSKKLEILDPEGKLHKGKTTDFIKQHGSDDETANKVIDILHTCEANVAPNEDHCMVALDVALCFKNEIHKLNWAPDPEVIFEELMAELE
Test: Fluorescence competitive binding assay with 1-NPN probe, recombinant MvitPBP1
Conditions: MvitPBP1; calculated from IC50; read-out: Ki (dissociation constant)

{"MOLECULE": "CCC/C=C/C=C/CCCCCCCCC=O [E10E12-16: Ald, (E,E)-10,12-Hexadecadienal]", "Ki [µM]": 4.97}
{"MOLECULE": "Oc1cccc2[nH]ccc12 [1H-indol-4-ol]", "Ki [µM]": 19.7}
{"MOLECULE": "CCCCC/C=C/CCCCCCCCC=O [E10-16: Ald, (E)-10-Hexadecenal]", "Ki [µM]": 6.44}
{"MOLECULE": "CCC/C=C/C=C/CCCCCCCCCO [E10E12-16: OH, (E,E)-10,12-Hexadecadien-1-ol]", "Ki [µM]": 7.73}
{"MOLECULE": "CCCCC/C=C/CCCCCCCCCO [E10-16: OH, (E)-10-Hexadecen-1-ol]", "Ki [µM]": 6.69}

###

Target: UniProt A0A1D6YJA8
Experiment: Fluorescence competitive binding assay with 1-NPN probe, recombinant MvitPBP2
Conditions: MvitPBP2; calculated from IC50; read-out: Ki (dissociation constant)
Known Ki of a selection of compounds

{"COMPOUND": "CCCCC/C=C/CCCCCCCCC=O [E10-16: Ald, (E)-10-Hexadecenal]", "Ki, µM": 4.78}
{"COMPOUND": "CC(C=O)Cc1ccccc1 (centres unmarked) [2-methyl-3-phenylpropanal]", "Ki, µM": 18.1}
{"COMPOUND": "CCCCC/C=C/CCCCCCCCCO [E10-16: OH, (E)-10-Hexadecen-1-ol]", "Ki, µM": 5.9}
{"COMPOUND": "CCC/C=C/C=C/CCCCCCCCC=O [E10E12-16: Ald, (E,E)-10,12-Hexadecadienal]", "Ki, µM": 5.09}
{"COMPOUND": "CCC/C=C/C=C/CCCCCCCCCO [E10E12-16: OH, (E,E)-10,12-Hexadecadien-1-ol]", "Ki, µM": 5.11}

###

Below, each of the compounds is paired with its reported IC50 value.
Target: MvitPBP1 (Maruca vitrata)
Assay: Fluorescence competitive binding assay with 1-NPN probe, recombinant MvitPBP1
Details: MvitPBP1; 2 μM protein and 1-NPN, 20 mM Tris-HCl pH 7.4; read-out: IC50 (ligand concentration displacing 50% of the fluorescence intensity of the MvitPBPs/1-NPN complex)

{"COMPOUND": "CCC/C=C/C=C/CCCCCCCCCO [E10E12-16: OH, (E,E)-10,12-Hexadecadien-1-ol]", "UNIT STRING": "µM", "IC50": 8.84}
{"COMPOUND": "CCCCC/C=C/CCCCCCCCC=O [E10-16: Ald, (E)-10-Hexadecenal]", "UNIT STRING": "µM", "IC50": 7.36}
{"COMPOUND": "CCCCC/C=C/CCCCCCCCCO [E10-16: OH, (E)-10-Hexadecen-1-ol]", "UNIT STRING": "µM", "IC50": 7.64}
